# Tested on: PC-3 prostate
# Assay comment: NCI-60 one-dose screen, 48 h (100 = growth as untreated, 0 = no growth, -100 = all killed)
# Test context: 10 µM unless noted
The panel holds about 83,000 compounds, 20% with a hit somewhere; the sample as a whole holds those more often.
The compounds listed here are annotated with their growth.
# number only, unit % dropped from output

A selection of reference data follows.
# Compound, Value units, growth
rows = [
    ("CC1CCN(CCCCCOc2ccc3oc4ccccc4c(=O)c3c2)CC1", "%", 80.8),
    ("C1=CC2=CC=C3C=CC=C4C(c5nc6c7ccccc7c7ccccc7c6[nH]5)=CC(=C1)C2C34 (configuration not stated)", "%", 78.8),
    ("CCCn1c2cc(OCc3cn(-c4ccc(Br)cc4)nn3)ccc2c2ccnc(C)c21", "%", 74.5),
    ("C=C1C(=O)O[C@H]2[C@H]1CC/C(COC(=O)CCCCCCCCC(=O)OC/C1=C/CC[C@@]3(C)O[C@H]3[C@H]3OC(=O)C(=C)[C@@H]3CC1)=C\\CC[C@@]1(C)O[C@@H]21", "%", -6.62),
    ("COc1ccc(N(C)c2nc(Cl)nc3ccn(C)c23)cc1", "%", 16.1),
]

Hello, please tell me recorded growth for this one: "O=C(CCl)N1CCCc2ccccc21"
96.8

Assign growth to the following record: "COc1cc(NC(=O)Nc2cnc(Nc3ccc(N4CCOCC4)cc3)nc2Oc2ccc(F)cc2)cc(OC)c1"
83

Report growth, nothing else, for this compound: "COCCOC(=O)COc1ccc(OC)cc1"
96.8

Annotate the compound "C#C[C@@]1(O)[C@@H](CO)O[C@@H](n2cc(I)c3c(N)ncnc32)[C@@H]1O" with its measured growth.
4.04

Name the recorded growth of the compound listed here: "COC(=O)/C=C1\SC(=Nc2cccc(OC)c2)N(CCc2c[nH]c3ccccc23)C1=O"
40.1
